Target: human glucagon-like peptide 1 receptor (GLP-1R) (human, UniProt P43220 24-463)
Assay: cell-based or functional assay
*1 amine or outer side, *2 acyl side, *3 side chain or, on linkers, in order; H or OH if unused. Side-chain parts run from the residue outwards. [ ]: non-standard residue; d: D form. The star is where a group is joined. C18 diacid = O=C(O)CCCCCCCCCCCCCCCCC(=O)*; γGlu = O=C(O)[C@H](CCC(=O)[*:2])N[*:1]; Ac4c = NC1(C(=O)O)CCC1; Aib = CC(C)(N)C(=O)O
Value type: EC50 hGLP-1R CHO-K1 [nM] (cAMP, AlphaScreen) (nM)
Just the number in nM, nothing appended.

- Binder: "HXQGTFTSDYSKYLDKRAAKDFIEWLESA (Ac4c at position 2; Lys 16 side chain conjugated to [17-carboxy-heptadecanoyl]-isoGlu-GSGSGG; C-terminal amide) [H-H-Ac4c-QGTFTSDYSKYLD-K([17-carboxy-heptadecanoyl]-isoGlu-GSGSGG)-RAAKDFIEWLESA-NH2]"
  Meas value: 0.97
- Binder: "H-H[Ac4c]QGTFTSDYSKYLDERAAKDFIKWLESA-NH2 (not fully specified (residue 24)) [H-H-Ac4c-QGTFTSDYSKYLDERAAKDFI-K([17-carboxy-heptadecanoyl]-isoGlu-GSGSGG)-WLESA-NH2]"
  Meas value: 0.33
- Binder: "H-H[Aib]QGTFTSDYSKYLEK([Peg3-Peg3-γGlu-C18 diacid])RAAHDFIEWLESA-NH2 [H-H-Aib-QGTFTSDYSKYLE-K([17-carboxy-heptadecanoyl]-isoGlu-Peg3-Peg3)-RAAHDFIEWLESA-NH2]"
  Meas value: 0.8

Documented EC50 hGLP-1R CHO-K1 [nM] (cAMP, AlphaScreen) of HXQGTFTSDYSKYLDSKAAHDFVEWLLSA (Aib at position 2; Lys 17 side chain conjugated to [15-carboxy-pentadecanoyl]-isoGlu; C-terminal amide) [H-H-Aib-QGTFTSDYSKYLDS-K([15-carboxy-pentadecanoyl]-isoGlu)-AAHDFVEWLLSA-NH2] : 0.38

// recorded EC50 hGLP-1R CHO-K1 [nM] (cAMP, AlphaScreen) for HXQGTFTSDYSKYLDERAAKDFIEWLEKA (Ac4c at position 2; Lys 28 side chain conjugated to [17-carboxy-heptadecanoyl]-isoGlu-GSGSGG; C-terminal amide) [H-H-Ac4c-QGTFTSDYSKYLDERAAKDFIEWLE-K([17-carboxy-heptadecanoyl]-isoGlu-GSGSGG)-A-NH2] : 0.61

For reference, reported EC50 hGLP-1R CHO-K1 [nM] (cAMP, AlphaScreen) for H-H[Ac4c]HGTFTSDYSKYLDEK([Peg3-Peg3-γGlu-C18 diacid])RAKDFIEWLESA-NH2 [H-H-Ac4c-HGTFTSDYSKYLDE-K([17-carboxy-heptadecanoyl]-isoGlu-Peg3-Peg3)-RAKDFIEWLESA-NH2] stands at 0.97

Lab note: measured EC50 hGLP-1R CHO-K1 [nM] (cAMP, AlphaScreen) of HXQGTFTSDYSKYLDERAAKDFIKWLESA (Aib at position 2; Lys 24 side chain conjugated to [17-carboxy-heptadecanoyl]-isoGlu-GSGSGG; C-terminal amide) [H-H-Aib-QGTFTSDYSKYLDERAAKDFI-K([17-carboxy-heptadecanoyl]-isoGlu-GSGSGG)-WLESA-NH2] was 0.7

Quick note, EC50 hGLP-1R CHO-K1 [nM] (cAMP, AlphaScreen) for HXQGTFTSDYSKYLEKRAAKDFIEWLESA (Aib at position 2; Lys 16 side chain conjugated to [17-carboxy-heptadecanoyl]-isoGlu-GSGSGG; C-terminal amide) [H-H-Aib-QGTFTSDYSKYLE-K([17-carboxy-heptadecanoyl]-isoGlu-GSGSGG)-RAAKDFIEWLESA-NH2] landed at 1.43

Memo: HXQGTFTSDYSKYLDERRAKDFIEWLEKA (Ac4c at position 2; Lys 28 side chain conjugated to [17-carboxy-heptadecanoyl]-isoGlu-GSGSGG; C-terminal amide) [H-H-Ac4c-QGTFTSDYSKYLDERRAKDFIEWLE-K([17-carboxy-heptadecanoyl]-isoGlu-GSGSGG)-A-NH2] , reported EC50 hGLP-1R CHO-K1 [nM] (cAMP, AlphaScreen): 0.53

For reference, reported EC50 hGLP-1R CHO-K1 [nM] (cAMP, AlphaScreen) for H-H[Ac4c]QGTFTSDYSKYLDEK([Peg3-Peg3-γGlu-C18 diacid])RAKDFIEWLESA-NH2 [H-H-Ac4c-QGTFTSDYSKYLDE-K([17-carboxy-heptadecanoyl]-isoGlu-Peg3-Peg3)-RAKDFIEWLESA-NH2] stands at 0.7

Data point: HXQGTFTSDYSKYLDKRAAKDFIEWLESA (Aib at position 2; Lys 16 side chain conjugated to [17-carboxy-heptadecanoyl]-isoGlu-GSGSGG; C-terminal amide) [H-H-Aib-QGTFTSDYSKYLD-K([17-carboxy-heptadecanoyl]-isoGlu-GSGSGG)-RAAKDFIEWLESA-NH2] ; EC50 hGLP-1R CHO-K1 [nM] (cAMP, AlphaScreen) = 0.83

Data origin: patent US9896495
